Target: UniProtKB Q12866
Sequence (Q12866 21-999): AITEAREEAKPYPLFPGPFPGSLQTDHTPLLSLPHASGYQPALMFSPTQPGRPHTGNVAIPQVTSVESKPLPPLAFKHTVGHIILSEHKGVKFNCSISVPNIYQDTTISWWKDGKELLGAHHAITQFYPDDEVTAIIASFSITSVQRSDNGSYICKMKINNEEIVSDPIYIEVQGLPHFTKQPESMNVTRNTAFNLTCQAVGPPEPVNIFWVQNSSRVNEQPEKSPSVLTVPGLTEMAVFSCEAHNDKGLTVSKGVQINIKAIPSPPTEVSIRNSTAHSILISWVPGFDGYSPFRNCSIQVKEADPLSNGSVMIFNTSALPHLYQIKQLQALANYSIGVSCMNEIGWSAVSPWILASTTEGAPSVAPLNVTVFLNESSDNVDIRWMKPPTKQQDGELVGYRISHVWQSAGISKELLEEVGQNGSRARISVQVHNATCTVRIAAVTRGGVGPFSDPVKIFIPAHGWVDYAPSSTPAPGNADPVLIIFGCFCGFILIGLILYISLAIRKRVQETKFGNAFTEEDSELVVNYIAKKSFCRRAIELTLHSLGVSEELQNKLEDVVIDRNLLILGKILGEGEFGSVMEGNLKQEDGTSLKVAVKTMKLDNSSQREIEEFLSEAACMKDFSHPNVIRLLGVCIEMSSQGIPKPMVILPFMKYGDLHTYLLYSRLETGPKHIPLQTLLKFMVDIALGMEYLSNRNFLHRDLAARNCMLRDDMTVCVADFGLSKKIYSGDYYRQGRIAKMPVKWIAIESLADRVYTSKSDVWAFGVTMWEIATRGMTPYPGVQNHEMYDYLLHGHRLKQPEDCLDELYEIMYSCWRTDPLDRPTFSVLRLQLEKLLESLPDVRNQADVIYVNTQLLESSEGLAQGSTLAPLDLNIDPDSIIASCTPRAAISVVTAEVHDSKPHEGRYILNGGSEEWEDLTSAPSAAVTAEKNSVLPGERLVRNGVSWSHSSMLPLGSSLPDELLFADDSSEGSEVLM
Test: TR-FRET kinase activity assay, MERTK
Assay type: biochemical
Settings: ratio calculated as FLT3 IC50/Mer IC50
measurement.name: Mer/Flt3 ratio (FLT3 IC50/Mer IC50)

> print(dat)
                            chemical.string                     measurement.name               reported
1  COC[C@H](C)Nc1ncc2c(O[C@@H]3CCN(C)C3)ncc([C@H]3CC[C@H](O)CC3)c2n1  Mer/Flt3 ratio (FLT3 IC50/Mer IC50)  +++ (a ratio of >100)
2  Cc1nccc(N2CCC(Oc3ncc([C@H]4CC[C@H](O)CC4)c4nc(N[C@@H](C)CC(F)(F)F)ncc34)CC2)n1  Mer/Flt3 ratio (FLT3 IC50/Mer IC50)  +++ (a ratio of >100)

###

Target: UniProt:P36888
Sequence (P36888 27-993): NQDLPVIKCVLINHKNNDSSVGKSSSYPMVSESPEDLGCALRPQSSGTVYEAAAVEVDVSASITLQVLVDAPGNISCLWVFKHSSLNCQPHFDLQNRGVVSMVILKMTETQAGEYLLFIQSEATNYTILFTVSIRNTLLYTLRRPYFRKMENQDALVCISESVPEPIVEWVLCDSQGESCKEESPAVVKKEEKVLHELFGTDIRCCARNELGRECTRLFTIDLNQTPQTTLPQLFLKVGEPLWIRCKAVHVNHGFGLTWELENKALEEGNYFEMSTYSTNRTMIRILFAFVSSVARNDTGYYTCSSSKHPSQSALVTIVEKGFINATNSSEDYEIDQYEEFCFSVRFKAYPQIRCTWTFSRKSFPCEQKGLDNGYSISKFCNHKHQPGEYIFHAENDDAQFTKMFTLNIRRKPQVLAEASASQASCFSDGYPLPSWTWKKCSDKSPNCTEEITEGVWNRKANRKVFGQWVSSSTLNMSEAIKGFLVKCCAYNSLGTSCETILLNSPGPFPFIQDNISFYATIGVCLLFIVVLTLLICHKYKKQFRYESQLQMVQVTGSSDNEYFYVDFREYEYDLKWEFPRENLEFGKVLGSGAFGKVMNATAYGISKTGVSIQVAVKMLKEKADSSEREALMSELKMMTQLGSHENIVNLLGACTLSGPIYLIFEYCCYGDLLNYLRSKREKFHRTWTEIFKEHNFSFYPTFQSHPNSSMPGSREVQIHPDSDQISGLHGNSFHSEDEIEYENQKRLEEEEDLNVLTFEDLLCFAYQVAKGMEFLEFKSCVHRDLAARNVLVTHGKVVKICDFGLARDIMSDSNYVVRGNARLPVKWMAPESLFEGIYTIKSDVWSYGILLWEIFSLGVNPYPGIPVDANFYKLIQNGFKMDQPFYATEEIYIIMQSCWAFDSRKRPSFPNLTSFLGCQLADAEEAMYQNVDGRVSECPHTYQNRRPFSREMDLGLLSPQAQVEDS
measurement.name: IC50

Example entries and their recorded answers appear below.
> print(dat)
                                   molecule     reported
1  COC[C@H](C)Nc1ncc2c(OC3CCOCC3)ncc([C@H]3CC[C@H](O)CC3)c2n1   1 to 10 µM
2  CC[C@H](C)Nc1ncc2c(OC3C[C@H]4CC[C@@H](C3)O4)ncc([C@H]3CC[C@H](O)CC3)c2n1 (some centres unmarked) [Compound 223]  0.1 to 1 µM
3  CCCC(C)Nc1ncc2c(=O)n(C3CCN(CC(=O)N(C)C)CC3)cc([C@H]3CC[C@@H](O)CC3)c2n1 (some centres unmarked)   1 to 10 µM
4  COCCN1[C@@H]2CC[C@H]1C[C@H](Oc1ncc([C@H]3CC[C@H](O)CC3)c3nc(N[C@@H](C)CC(F)(F)F)ncc13)C2  0.1 to 1 µM
5  CC[C@H](C)Nc1ncc2c(O[C@H]3CC[C@@H](N(C)C)C3)ncc([C@H]3CC[C@H](O)CC3)c2n1   1 to 10 µM
6  COC[C@H](C)Nc1ncc2c(OC3CCOCC3)ncc([C@H]3CCCN(C)C3)c2n1   1 to 10 µM
7  CCCC(C)Nc1ncc2c(=O)n(C3CCN(C)CC3)cc([C@H]3CC[C@H](O)CC3)c2n1 (some centres unmarked)   1 to 10 µM
8  CCCC(C)Nc1ncc2c(N3CC[C@@H](N(C)C)C3)ncc([C@H]3CC[C@H](O)CC3)c2n1 (some centres unmarked)   1 to 10 µM

Value of IC50 reported for the molecule COC[C@H](C)Nc1ncc2c(OC3C[C@@H](C)N(C)[C@@H](C)C3)ncc([C@H]3CC[C@H](O)CC3)c2n1 (some centres unmarked) is 1 to 10 µM

# IC50 of CC[C@H](C)Nc1ncc2c(O[C@H]3CC[C@H](C(C)(C)O)CC3)ncc([C@H]3CC[C@H](O)CC3)c2n1 = 0.1 to 1 µM

Lab book: IC50 of COC[C@H](C)Nc1ncc2c(O[C@H]3C[C@H](C(=O)N4CCN(C)CC4)C3)ncc([C@H]3CC[C@H](O)CC3)c2n1 noted as 1 to 10 µM

IC50 measured on O[C@H]1CC[C@H](c2cnc(OC3CCNCC3)c3cnc(Nc4ccccc4F)nc32)CC1 = 0.1 to 1 µM

// recorded IC50 for CC[C@H](C)Nc1ncc2c(OC3C[C@@H](C)O[C@@H](C)C3)ncc([C@H]3CC[C@H](O)CC3)c2n1 (some centres unmarked) : 1 to 10 µM

Input N#Cc1ccc(Nc2ncc3c(OC4CCNCC4)ncc([C@H]4CC[C@H](O)CC4)c3n2)cc1 . Output IC50: ≤ 0.1 µM

Cited source: patent US20200291018A1
